Tested on: Human immunodeficiency virus 1
experiment-summary: Antiviral activity against wild type HIV-1 NL4-3 infected in MT-2 cells assessed as inhibition of viral replication in presence of 10% of fetal bovine serum by luciferase reporter gene based multicycle replication assay
Assay type: functional, organism-based
assay-conditions: Human immunodeficiency virus 1, NL4-3, MT2
metric: EC50
Kindly report the value followed by its unit.

Worked cases, EC50 given:
INSERT INTO measurements (smiles, metric, value_measured) VALUES
  ('C=C(C)[C@@H]1CC[C@]2(NCCN3CCC(S(C)(=O)=O)CC3)CC[C@]3(C)[C@H](CC[C@@H]4[C@@]5(C)CC=C(c6ccc(C(=O)O)cc6)C(C)(C)[C@@H]5CC[C@]43C)[C@@H]12', 'EC50', '1.9 nM'),
  ('C=C(C)[C@@H]1CC[C@]2(NCCN3CCS(=O)(=O)CC3)CC[C@]3(C)[C@H](CC[C@@H]4[C@@]5(C)CC=C(C6=CC7(C6)CC(C(=O)O)(C(=O)O)C7)C(C)(C)[C@@H]5CC[C@]43C)[C@@H]12', 'EC50', '13 nM'),
  ('C=C(C)[C@@H]1CC[C@]2(NCCN3CCC(S(C)(=O)=O)CC3)CC[C@]3(C)[C@H](CC[C@@H]4[C@@]5(C)CC=C(C6=CC[C@H](C(=O)O)CC6)C(C)(C)[C@@H]5CC[C@]43C)[C@@H]12', 'EC50', '1.4 nM');

// field: EC50; key: `C=C(C)[C@@H]1CC[C@]2(NCCN3CCC(S(C)(=O)=O)CC3)CC[C@]3(C)[C@H](CC[C@@H]4[C@@]5(C)CC=C(C6=CC[C@@H](C(=O)O)CC6)C(C)(C)[C@@H]5CC[C@]43C)[C@@H]12` ; value = 2.7 nM

====

experiment-summary: Cmax in rat at 5 mg/kg, po measured after 24 hrs
Format: ADME, organism-based
Set-up: route oral, dose 5 mg/kg, time 24 hrs
assay-conditions: in vivo
metric: Cmax (nM)
One number for each entry, in nM.

INSERT INTO assay_data (compound, metric, units_of_measure, value_measured) VALUES
  ('C=C(C)[C@@H]1CC[C@]2(NCCN3CCS(=O)(=O)CC3)CC[C@]3(C)[C@H](CC[C@@H]4[C@@]5(C)CC=C(C6=CC7(C6)CC(C(=O)O)C7)C(C)(C)[C@@H]5CC[C@]43C)[C@@H]12 (stereo partly drawn)', 'Cmax', 'nM', 900),
  ('C=C(C)[C@@H]1CC[C@]2(NCCN3CCS(=O)(=O)CC3)CC[C@]3(C)[C@H](CC[C@@H]4[C@@]5(C)CC=C(c6ccc(C(=O)O)cc6)C(C)(C)[C@@H]5CC[C@]43C)[C@@H]12', 'Cmax', 'nM', 1200);

Attention now turns to another entry.
// field: Cmax; key: `C=C(C)[C@@H]1CC[C@]2(NCCN3CCS(=O)(=O)CC3)CC[C@]3(C)[C@H](CC[C@@H]4[C@@]5(C)CC=C(C6=CC[C@@H](C(=O)O)CC6)C(C)(C)[C@@H]5CC[C@]43C)[C@@H]12` ; value = 1100

====

experiment-summary: AUCtotal in rat at 5 mg/kg, po measured after 24 hrs
Format: ADME, organism-based
Set-up: route oral, dose 5 mg/kg, time 24 hrs
assay-conditions: in vivo
Can you tell me AUC for the items I'm about to list?
Numbers only, in µM·h.

Please look at the items below and tell me AUC for each one, in order.
1. C=C(C)[C@@H]1CC[C@]2(NCCN3CCS(=O)(=O)CC3)CC[C@]3(C)[C@H](CC[C@@H]4[C@@]5(C)CC=C(C6=CC7(C6)CC(C(=O)O)C7)C(C)(C)[C@@H]5CC[C@]43C)[C@@H]12 (stereo partly drawn)
2. C=C(C)[C@@H]1CC[C@]2(NCCN3CCS(=O)(=O)CC3)CC[C@]3(C)[C@H](CC[C@@H]4[C@@]5(C)CC=C(c6ccc(C(=O)O)cc6)C(C)(C)[C@@H]5CC[C@]43C)[C@@H]12
3. C=C(C)[C@@H]1CC[C@]2(NCCN3CCS(=O)(=O)CC3)CC[C@]3(C)[C@H](CC[C@@H]4[C@@]5(C)CC=C(C6=CC[C@@H](C(=O)O)CC6)C(C)(C)[C@@H]5CC[C@]43C)[C@@H]12

RESULT:
1. 13.5
2. 14.2
3. 15.8

====

System: Human immunodeficiency virus 1
experiment-summary: Antiviral activity against wild type HIV-1 NL4-3 harbouring Gag […]/V370A mutant infected in MT-2 cells assessed as inhibition of viral replication in presence of 10% of fetal bovine serum by luciferase reporter gene based multicycle replication assay
Assay type: functional, organism-based
assay-conditions: Human immunodeficiency virus 1, NL4-3, MT2
metric: EC50 (nM)
One number for each entry, in nM.

Worked cases, EC50 given:
INSERT INTO results (molecule, metric, value_measured) VALUES
  ('C=C(C)[C@@H]1CC[C@]2(NCCN3CCC(S(C)(=O)=O)CC3)CC[C@]3(C)[C@H](CC[C@@H]4[C@@]5(C)CC=C(C6=CC[C@H](C(=O)O)CC6)C(C)(C)[C@@H]5CC[C@]43C)[C@@H]12', 'EC50', 9.6),
  ('C=C(C)[C@@H]1CC[C@]2(NCCN3CCS(=O)(=O)CC3)CC[C@]3(C)[C@H](CC[C@@H]4[C@@]5(C)CC=C(CCC(C)(C)CC(=O)O)C(C)(C)[C@@H]5CC[C@]43C)[C@@H]12', 'EC50', 1.6),
  ('C=C(C)[C@@H]1CC[C@]2(NCCN3CCS(=O)(=O)CC3)CC[C@]3(C)[C@H](CC[C@@H]4[C@@]5(C)CC=C(CC6CCC(C(=O)O)CC6)C(C)(C)[C@@H]5CC[C@]43C)[C@@H]12 (some centres not stated)', 'EC50', 12.4),
  ('C=C(C)[C@@H]1CC[C@]2(NCCN3CCS(=O)(=O)CC3)CC[C@]3(C)[C@H](CC[C@@H]4[C@@]5(C)CC=C(c6ccc(C(=O)O)cc6)C(C)(C)[C@@H]5CC[C@]43C)[C@@H]12', 'EC50', 148),
  ('C=C(C)[C@@H]1CC[C@]2(NCCN3CCS(=O)(=O)CC3)CC[C@]3(C)[C@H](CC[C@@H]4[C@@]5(C)CC=C(C6=CCC(C(=O)O)(C(=O)O)CC6)C(C)(C)[C@@H]5CC[C@]43C)[C@@H]12', 'EC50', 113);

Please look at the items below and tell me EC50 for each one, in order.
1. C=C(C)[C@@H]1CC[C@]2(NCCN3CCS(=O)(=O)CC3)CC[C@]3(C)[C@H](CC[C@@H]4[C@@]5(C)CC=C(C6=CC7(C6)CC(C(=O)O)C7)C(C)(C)[C@@H]5CC[C@]43C)[C@@H]12 (some centres not stated)
2. C=C(C)[C@@H]1CC[C@]2(NCCN3CCC(S(C)(=O)=O)CC3)CC[C@]3(C)[C@H](CC[C@@H]4[C@@]5(C)CC=C(C6=CC[C@@H](C(=O)O)CC6)C(C)(C)[C@@H]5CC[C@]43C)[C@@H]12

RESULT:
1: 49; 2: 14.7

====

Test system: Human immunodeficiency virus 1
experiment-summary: Antiviral activity against wild type HIV-1 NL4-3 harbouring Gag A364V mutant infected in MT-2 cells assessed as inhibition of viral replication in presence of 10% of fetal bovine serum by luciferase reporter gene based multicycle replication assay
Format: functional, organism-based
assay-conditions: Human immunodeficiency virus 1, NL4-3, MT2
Can you tell me pEC50 for the items I'm about to list?
Give bare numbers, as −log10 of the molar value.

INSERT INTO results (compound, value_measured) VALUES
  ('C=C(C)[C@@H]1CC[C@]2(NCCN3CCC(S(C)(=O)=O)CC3)CC[C@]3(C)[C@H](CC[C@@H]4[C@@]5(C)CC=C(C6=CC[C@H](C(=O)O)CC6)C(C)(C)[C@@H]5CC[C@]43C)[C@@H]12', 6.06);

Attention now turns to another entry.
Record C=C(C)[C@@H]1CC[C@]2(NCCN3CCS(=O)(=O)CC3)CC[C@]3(C)[C@H](CC[C@@H]4[C@@]5(C)CC=C(C6=CC7(C6)CC(C(=O)O)C7)C(C)(C)[C@@H]5CC[C@]43C)[C@@H]12 (some centres not stated) ; system Human immunodeficiency virus 1; pEC50 = 6.01

====

Can you tell me half-life for the items I'm about to list?
experiment-summary: Metabolic stability in rat liver microsomes assessed as half life
Type: ADME, Microsome
assay-conditions: time 2 min

INSERT INTO assay_data (molecule, metric, value_measured) VALUES
  ('C=C(C)[C@@H]1CC[C@]2(NCCN3CCS(=O)(=O)CC3)CC[C@]3(C)[C@H](CC[C@@H]4[C@@]5(C)CC=C(c6ccc(C(=O)O)cc6)C(C)(C)[C@@H]5CC[C@]43C)[C@@H]12', 'half-life', '> 2 h'),
  ('C=C(C)[C@@H]1CC[C@]2(NCCN3CCS(=O)(=O)CC3)CC[C@]3(C)[C@H](CC[C@@H]4[C@@]5(C)CC=C(C6=CC7(C6)CC(C(=O)O)C7)C(C)(C)[C@@H]5CC[C@]43C)[C@@H]12 (stereo not given in full)', 'half-life', '> 2 h');

Please look at the items below and tell me half-life for each one, in order.
1. C=C(C)[C@@H]1CC[C@]2(C(=O)O)CC[C@]3(C)[C@H](CC[C@@H]4[C@@]5(C)CC[C@H](OC(=O)CC(C)(C)C(=O)O)C(C)(C)[C@@H]5CC[C@]43C)[C@@H]12
2. C=C(C)[C@@H]1CC[C@]2(NCCN3CCS(=O)(=O)CC3)CC[C@]3(C)[C@H](CC[C@@H]4[C@@]5(C)CC=C(C6=CC[C@@H](C(=O)O)CC6)C(C)(C)[C@@H]5CC[C@]43C)[C@@H]12
3. C=C(C)[C@@H]1CC[C@]2(C(=O)O)CC[C@]3(C)[C@H](CC[C@@H]4[C@@]5(C)CC=C(c6ccc(C(=O)O)cc6)C(C)(C)[C@@H]5CC[C@]43C)[C@@H]12

RESULT:
0.492 h
> 2 h
> 2 h
